target: the molecule itself; assay: SPR; OpenSPR (Nicoya), ligand protein (0.100 mg) amine-coupled to a Carboxy sensor chip; 1 M sodium caprate injected to disrupt preformed interactions and after each analyte; analyte 12.5-100 ug per 200 uL injection, triplicate; global fit, 1:1 Langmuir model, TraceDraw
quantity measured: Kd (nM)
Report as a plain number; the unit nM is understood.

A selection of reference data follows.
MBP-fused extracellular domain of human JAM-A (Gly27-Arg228) (domain or fragment, UniProt Q9Y624 27-228, looked up, JAM-A, human, extracellular domain, Gly27-Arg228 of Q9Y624; No protease site between MBP and the target in the final design (pET28a-MBP, NdeI/XhoI); also called junctional adhesion molecule A; source: E. coli SHuffle T7 Express, purified (amylose resin, size exclusion chromatography); not shown: MBP, N-terminal, kept) GSVTVHSSEPEVRIPENNPVKLSCAYSGFSSPRVEWKFDQGDTTRLVCYNNKITASYEDRVTFLPTGITFKSVTREDTGTYTCMVSEEGGNSYGEVKVKLIVLVPPSKPTVNIPSSATIGNRAVLTCSEQDGSPPSEYTWFKDGIVMPTNPKSTRAFSNSSYVLNPTTGELVFDPLSASDTGEYSCEARNGYGTPMTSNAVR ... 76.6
MBP-fused extracellular domain of human JAM-B (Gly28-Ser238) (domain or fragment, UniProt P57087 28-238, looked up, JAM-B, human, extracellular domain, Gly28-Ser238 of P57087; No protease site between MBP and the target in the final design; Octamer by size exclusion; also called junctional adhesion molecule B; source: E. coli SHuffle T7 Express, purified (amylose resin, size exclusion chromatography); not shown: MBP, N-terminal, kept) GFSAPKDQQVVTAVEYQEAILACKTPKKTVSSRLEWKKLGRSVSFVYYQQTLQGDFKNRAEMIDFNIRIKNVTRSDAGKYRCEVSAPSEQGQNLEEDTVTLEVLVAPAVPSCEVPSSALSGTVVELRCQDKEGNPAPEYTWFKDGIRLLENPRLGSQSTNSSYTMNTKTGTLQFNTVSKLDTGEYSCEARNSVGYRRCPGKRMQVDDLNIS ... 9.97
MBP-fused extracellular domain of human JAM-C (Gly30-Glu236) (domain or fragment, UniProt Q9BX67 30-236, looked up, JAM-C, human, extracellular domain, Gly30-Glu236 of Q9BX67; No protease site between MBP and the target in the final design; Tetramer by size exclusion; also called junctional adhesion molecule C; source: E. coli SHuffle T7 Express, purified (amylose resin, size exclusion chromatography); not shown: MBP, N-terminal, kept) GAVNLKSSNRTPVVQEFESVELSCIITDSQTSDPRIEWKKIQDEQTTYVFFDNKIQGDLAGRAEILGKTSLKIWNVTRRDSALYRCEVVARNDRKEIDEIVIELTVQVKPVTPVCRVPKAVPVGKMATLHCQESEGHPRPHYSWYRNDVPLPTDSRANPRFRNSSFHLNSETGTLVFTAVHKDDSGQYYCIASNDAGSARCEEQEME ... 30.2

We next turn to a different protein, shown below.
Ask | Fill blank: measured Kd of the protein MBP-fused extracellular domain of human JAM4 (Gly34-Arg286) (domain or fragment, UniProt Q9NSI5 34-286, looked up, JAM4, human, extracellular domain, Gly34-Arg286 of Q9NSI5; No protease site between MBP and the target in the final design; Decamer by size exclusion; source: E. coli SHuffle T7 Express, purified (amylose resin, size exclusion chromatography); not shown: MBP, N-terminal, kept) GSGSGNEVIEGPQNARVLKGSQARFNCTVSQGWKLIMWALSDMVVLSVRPMEPIITNDRFTSQRYDQGGNFTSEMIIHNVEPSDSGNIRCSLQNSRLHGSAYLTVQVMGELFIPSVNLVVAENEPCEVTCLPSHWTRLPDISWELGLLVSHSSYYFVPEPSDLQSAVSILALTPQSNGTLTCVATWKSLKARKSATVNLTVIRCPQDTGGGINIPGVLSSLPSLGFSLPTWGKVGLGLAGTMLLTPTCTLTIR is ____.
Reply | 0.139
